// data source = paper PMC9482650

# Target system: LAP2, Q96RT1
# Sequence (Q96RT1 other isoform, or with tags, fused parts or gaps): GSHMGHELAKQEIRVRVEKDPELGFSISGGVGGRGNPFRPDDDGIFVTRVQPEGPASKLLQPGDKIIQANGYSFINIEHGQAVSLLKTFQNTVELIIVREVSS
# Assay explanation: holdup assay
# Parameters: key: below the threshold = too weak to quantify, mostly under pKd 3.1 to 4
# Stated conditions: plain residues with an end cap or a label only (N-terminal biotin on a linker: ado-ado)
Measured attribute: pKd

Solved entries:
Binder	pKd
GVHSNDHSVV [LPAR1, Q92633]	below the threshold
TFSRRPKTRV [CD226, Q15762]	below the threshold
LLQEEWETVM [PTH1R, Q03431]	below the threshold
EAVTVESTSL [SLC22A11, Q9NSA0]	below the threshold
LPPPESESKV [KCNJ9, Q92806]	3.85

**Q:** Record request: pKd value, item KKTPVSRSHL [SLC22A3, O75751]
**A:** below the threshold

**Q:** Record request: pKd value, item KEKASTETEC [TRPM1, Q7Z4N2]
**A:** 3.67

**Q:** Record request: pKd value, item SQPLLVHDDV [KIT, P10721]
**A:** 3.56

**Q:** Record request: pKd value, item QLKSGRDSTV [TMEM178A, Q8NBL3]
**A:** 3.63

**Q:** Record request: pKd value, item VCMGDHWFDV [PRKN, O60260]
**A:** 3.67

**Q:** Record request: pKd value, item KIEDVEITLV [FCHSD2, O94868]
**A:** 3.84

**Q:** Record request: pKd value, item HLSTRQGTCV [ATRNL1, Q5VV63]
**A:** 3.94

**Q:** Record request: pKd value, item GQNMTVSVVI [PRLHR, P49683]
**A:** below the threshold

**Q:** Record request: pKd value, item PSVYSRSQYV [CLDN8, P56748]
**A:** below the threshold
